This collection of values is drawn from ChEMBL document CHEMBL1821601.

Experiment: AUC (0 to 24 hrs) in MDR1a-deficient FVB mouse at 30 mg/kg, po
Type: ADME, organism-based
Set-up: time < 24 hr, dose 30 mg/kg, route oral
Details: plasma

>  <compound.string>
COCCCc1cc(CN(C(=O)[C@H]2CNCC[C@@H]2c2ccn(C)c(=O)c2)C2CC2)cc(Br)c1C

>  <endpoint.unit>
µM·h

>  <AUC(0-t) at 24 h>
4

$$$$

----------
Test: Drug recovery in permanently bile-duct cannulated rat supplimented with artificial bile at 20 mg/kg, po after 48 hrs by HPLC-MS/MS analysis
Assay type: ADME, organism-based
Parameters: dose 20 mg/kg, route oral
Conditions: in vivo, read-out: Drug uptake

>  <compound.string>
COCCCc1cc(CN(C(=O)[C@H]2CNCC[C@@H]2c2ccn(C)c(=O)c2)C2CC2)cc(OCCOC)c1.Cl

>  <dose excreted at 48 h (%)>
75

$$$$

----------
# clearance annotations
Assay: Plasma clearance in rat at 30 mg/kg, po and 5 mg/kg, iv
Format: ADME, organism-based
property.label: clearance (mL/min/kg)

>  <compound.string>
COCCCc1cc(CN(C(=O)[C@H]2CNCC[C@@H]2c2ccc(OCCOc3c(Cl)cc(C)cc3Cl)cc2)C2CC2)cc(OCCOC)c1.Cl

>  <experimental.result>
11

$$$$
>  <compound.string>
COCCCc1cc(CN(C(=O)[C@H]2CNCC[C@@H]2c2ccn(C)c(=O)c2)C2CC2)cc(OCCOC)c1.Cl

>  <experimental.result>
31

$$$$

----------
Test: Oral bioavailability in rat at 3 mg/kg
Type: ADME, organism-based
Conditions: in vivo
property.label: bioavailability (%)

>  <compound.string>
COCCOc1cc(CCOC)cc(CN(C(=O)[C@H]2CNCC[C@]2(O)c2ccc(F)c(F)c2)C2CC2)c1

>  <property.label>
bioavailability

>  <experimental.result>
29

$$$$
>  <compound.string>
COCCCc1cc(Cl)c(Cl)c(CN(C(=O)[C@H]2CNCC[C@@H]2c2ccn(C)c(=O)c2)C2CC2)c1

>  <property.label>
bioavailability

>  <experimental.result>
2

$$$$
>  <compound.string>
COCCCc1cc(CN(C(=O)[C@H]2CNCC[C@@H]2c2ccn(C)c(=O)c2)C2CC2)cc(Br)c1C

>  <property.label>
bioavailability

>  <experimental.result>
3

$$$$

----------
Test system: Mus musculus
Assay: Volume of distribution at steady state in FVB mouse expressing wild type MDR1a at 30 mg/kg, po and 5 mg/kg, iv
Assay type: ADME, organism-based
Conditions: in vivo

>  <compound.string>
COCCCc1cc(CN(C(=O)[C@H]2CNCC[C@@H]2c2ccn(C)c(=O)c2)C2CC2)cc(Br)c1C

>  <Vdss (L/kg)>
3.7

$$$$

----------
Experiment: Drug uptake in MDR1a-deficient FVB mouse brain at 30 mg/kg, po after 24 hrs
Type: ADME, organism-based
Parameters: dose 30 mg/kg, route oral
Settings: read-out: Drug uptake

>  <compound.string>
COCCCc1cc(CN(C(=O)[C@H]2CNCC[C@@H]2c2ccn(C)c(=O)c2)C2CC2)cc(Br)c1C

>  <endpoint.unit>
nM

>  <concentration at 24 h>
504

$$$$
